growth values, listed per item
Test system: E. coli TESEC Mtb Alr
Assay: growth (OD600 after 10 h); higher = more growth (less inhibition)
Conditions: arabinose 1000 nM; compound 0.1 mM; raw OD600 reference: median of DMSO wells 0.294, cell-free background 0.041
Where a name gives a salt, the structure may show the parent alone.
REPORTED ENDPOINT: growth

INSERT INTO results (compound, system_name, reported_endpoint, meas_value) VALUES
  ('CN1CCC(=C2c3ccccc3C=Cc3ccccc32)CC1 [Cyproheptadine hydrochloride]', 'E. coli TESEC Mtb Alr', 'growth', 0.163),
  ('Nc1nc(F)nc2c1ncn2[C@@H]1O[C@H](CO)[C@@H](O)[C@@H]1O', 'E. coli TESEC Mtb Alr', 'growth', 0.216),
  ('CN1CCN(CC(=O)N2c3ccccc3C(=O)Nc3cccnc32)CC1 [Pirenzepine dihydrochloride]', 'E. coli TESEC Mtb Alr', 'growth', 0.269),
  ('CN(C)[C@@H]1C(=O)C(C(N)=O)=C(O)[C@@]2(O)C(=O)C3=C(O)c4c(O)ccc(Cl)c4[C@@H](O)[C@H]3C[C@@H]12 [Demeclocycline hydrochloride]', 'E. coli TESEC Mtb Alr', 'growth', 0.0502);

---

Tested on: E. coli TESEC Mtb Alr
Assay: growth (OD600 after 10 h); higher = more growth (less inhibition)
Conditions: arabinose 1000 nM; compound 0.1 mM; raw OD600 reference: median of DMSO wells 0.294, cell-free background 0.041
Where a name gives a salt, the structure may show the parent alone.
If the reported growth equals or exceeds 0.3, assign 1 (yes). If not, assign 0 (no).

INSERT INTO measurements (molecule, class_name) VALUES
  ('CC1CS(=O)(=O)CCN1/N=C/c1ccc([N+](=O)[O-])o1 (stereo not given) [Nifurtimox]', '0 (no)'),
  ('CCOC(=O)[C@H](CCc1ccccc1)N[C@@H](C)C(=O)N1Cc2ccccc2C[C@H]1C(=O)O [Quinapril HCl]', '0 (no)'),
  ('Cc1ccc(S(=O)(=O)NC(=O)NN2CC3CCCC3C2)cc1 (stereo not given) [Gliclazide]', '1 (yes)'),
  ('CN(C)CCn1nnnc1SCC1=C(C(=O)O)N2C(=O)[C@@H](NC(=O)Cc3csc(N)n3)[C@H]2SC1 [Cefotiam hydrochloride]', '0 (no)'),
  ('N[C@@H](C(=O)N[C@@H]1C(=O)N2C(C(=O)O)=C(Cl)CS[C@H]12)c1ccccc1 [Cefaclor hydrate]', '1 (yes)'),
  ('CCN1CCN(c2cc3c(cc2F)c(=O)c(C(=O)O)cn3C2CC2)CC1 [Enrofloxacin]', '0 (no)'),
  ('C[C@]12CC[C@@H]3c4ccc(O)cc4CC[C@H]3[C@@H]1CC[C@@H]2O [Estradiol-17 beta]', '0 (no)'),
  ('C=CCOc1ccccc1OCC(O)CNC(C)C (stereo not given) [Oxprenolol hydrochloride]', '0 (no)'),
  ('CN(C)CCN(Cc1ccccc1)c1ccccn1 [Tripelennamine hydrochloride]', '0 (no)'),
  ('CN(C)[C@@H]1C(=O)C(C(=O)NCNCCCC[C@H](N)C(=O)O)=C(O)[C@@]2(O)C(=O)C3=C(O)c4c(O)cccc4[C@@](C)(O)[C@H]3C[C@@H]12 [Lymecycline]', '0 (no)'),
  ('CCCC(=O)Nc1ncnc2c1ncn2[C@@H]1O[C@@H]2COP(=O)(O)O[C@H]2[C@H]1OC(=O)CCC [Bucladesine sodium salt]', '1 (yes)'),
  ('Cc1noc(NS(=O)(=O)c2ccc(N)cc2)c1C [Sulfisoxazole]', '0 (no)'),
  ('CC(=O)O[C@H]1C[C@@H]2CC[C@@H]3[C@H](CC[C@@]4(C)[C@H]3C[C@H]([N+]3(C)CCCCC3)[C@@H]4OC(C)=O)[C@@]2(C)C[C@@H]1N1CCCCC1 [Vecuronium bromide]', '0 (no)'),
  ('CC(=O)Nc1c(I)c(NC(C)=O)c(I)c(C(=O)O)c1I [Diatrizoic acid dihydrate]', '0 (no)');
